Please respond with reported inhibition at 25 ppm for every item in the list.
Tested on: Rhizoctonia solani (RHIZSO)
Experimental details: microbe, parasite or virus in culture
Format: cell-based
Assay conditions: Rhizoctonia solani, read-out: RHIZSO in vitro Growth Inhibition

Exercise: Consider the compound COc1ccnc(C(=O)N[C@H](C(=O)O[C@@H](C)[C@H](OC(=O)C(C)C)[C@@H](Cc2ccccc2)C(=O)OCc2ccccc2)[C@@H](C)OC(C)=O)c1O and give its measured inhibition at 25 ppm.
Solution: < 80%

Exercise: Consider the compound COc1ccnc(C(=O)NCCCCCCCCCCC(=O)OCCSc2ccccc2)c1O and give its measured inhibition at 25 ppm.
Solution: < 80%

Exercise: Consider the compound COc1ccnc(C(=O)N[C@H]2COC(=O)[C@H](Cc3ccccc3)[C@@H](OC(=O)C(C)C)[C@H](C)OC2=O)c1OC(=O)c1ccc(Cl)c(Cl)c1 and give its measured inhibition at 25 ppm.
Solution: < 80%

Exercise: Consider the compound COc1ccnc(C(=O)NC(CC2CCCCC2)C(=O)OC2CCNC2)c1O (stereo not shown) and give its measured inhibition at 25 ppm.
Solution: > 80%

Exercise: Consider the compound COc1ccnc(C(=O)NC(C)c2ccc(Cl)cc2)c1O (stereo not shown) and give its measured inhibition at 25 ppm.
Solution: < 80%

Exercise: Consider the compound COc1ccnc(C(=O)N[C@H]2COC(=O)[C@H](Cc3ccccc3)[C@@H](OC(=O)C3CC3)[C@H](C)OC2=O)c1O and give its measured inhibition at 25 ppm.
Solution: > 80%

Exercise: Consider the compound C=C(C)C(=O)O[C@H]1[C@H](C)OC(=O)[C@@H](NC(=O)c2nccc(OC)c2O)COC(=O)[C@@H]1Cc1ccccc1 and give its measured inhibition at 25 ppm.
Solution: < 80%

Exercise: Consider the compound COc1ccnc(C(=O)NC2CC(c3ccco3)CC(C)(C)C2)c1O (stereo not shown) and give its measured inhibition at 25 ppm.
Solution: < 80%

Exercise: Consider the compound COc1ccnc(C(=O)Nc2ccc(Oc3ccc(C(F)(F)F)cc3)cc2)c1OC(C)=O and give its measured inhibition at 25 ppm.
Solution: > 80%

Exercise: Consider the compound COc1ccnc(C(=O)NCC(=O)OC2CCCCC2)c1O and give its measured inhibition at 25 ppm.
Solution: > 80%

Exercise: Consider the compound O=C(Nc1ccc(Cl)cc1)c1ncccc1O and give its measured inhibition at 25 ppm.
Solution: < 80%

Exercise: Consider the compound COc1ccnc(C(=O)NC2CCC(Sc3ccccc3)CC2)c1O (stereo not shown) and give its measured inhibition at 25 ppm.
Solution: > 80%

Exercise: Consider the compound CC(C)C(=O)O[C@H]1[C@H](C)OC(=O)[C@@H](NC(=O)c2nc(Cl)c(Cl)nc2O)COC(=O)[C@@H]1Cc1ccccc1 and give its measured inhibition at 25 ppm.
Solution: < 80%

Exercise: Consider the compound CSc1ccnc(C(=O)NC2CC(C)(C)CC(C)(C)C2)c1O and give its measured inhibition at 25 ppm.
Solution: < 80%

Exercise: Consider the compound Cc1ccnc(C(=O)NC2CC(C)(C)CC(C)(C)C2)c1O and give its measured inhibition at 25 ppm.
Solution: < 80%

Exercise: Consider the compound COc1cccc(CNC(=O)c2ncccc2O)c1OC and give its measured inhibition at 25 ppm.
Solution: < 80%

---

System: Leptosphaeria nodorum—LEPTNO
Experimental details: Glume Blotch of Wheat, in vivo whole plant, 24 Hour Protectant
Assay conditions: Leptosphaeria; 100 ppm spray, 24 hour protectant, wheat; control of fungal infection vs untreated plants; read-out: LEPTNO in vivo 1 Day Protectant
Observed property: pest or weed control at 100 ppm

Exercise: Consider the molecule Cc1ccnc(C(=O)NC2COC(=O)[C@H](Cc3ccccc3)[C@@H](OC(=O)C(C)C)[C@H](C)OC2=O)c1O (stereo partly shown) [Compound 237] and give its measured pest or weed control at 100 ppm.
Solution: 25 to 74%

Exercise: Consider the molecule COc1ccnc(C(=O)NC2CC(C)(C)/C=C\CC(C)(C)C2)c1O (stereo not shown) [Compound 283] and give its measured pest or weed control at 100 ppm.
Solution: 25 to 74%

Exercise: Consider the molecule O=C(NCc1cccc(Cl)c1)c1ncccc1O [Compound 219] and give its measured pest or weed control at 100 ppm.
Solution: < 25%

Exercise: Consider the molecule CCCCC1(C)CC(NC(=O)c2nccc(OC)c2O)CC(C)(C)C1 (stereo not shown) [Compound 253] and give its measured pest or weed control at 100 ppm.
Solution: 25 to 74%

Exercise: Consider the molecule CC(NC(=O)c1ncccc1O)c1ccccc1 (stereo not shown) [Compound 229] and give its measured pest or weed control at 100 ppm.
Solution: < 25%

Exercise: Consider the molecule COc1ccnc(C(=O)N[C@@H]2C[C@@H](O[Si](C)(C)C(C)(C)C)O[C@@H](C)[C@@H]2OC)c1O [Compound 326] and give its measured pest or weed control at 100 ppm.
Solution: 25 to 74%

Exercise: Consider the molecule COc1ccnc(C(=O)N[C@@H]2CC3CC2C2C(=O)N(CC(C)C)C(=O)C32)c1O (stereo partly shown) [Compound 303] and give its measured pest or weed control at 100 ppm.
Solution: 25 to 74%

Exercise: Consider the molecule COc1ccnc(C(=O)N[C@H]2C(O)[C@@H]3CC[C@H]2[C@@H]2CCCC[C@@H]23)c1O (stereo partly shown) [Compound 293] and give its measured pest or weed control at 100 ppm.
Solution: 25 to 74%

Exercise: Consider the molecule COc1ccnc(C(=O)NC2CC3CCC2C3)c1O (stereo not shown) [Compound 287] and give its measured pest or weed control at 100 ppm.
Solution: 25 to 74%

Exercise: Consider the molecule COc1cccc(CNC(=O)c2ncccc2O)c1 [Compound 225] and give its measured pest or weed control at 100 ppm.
Solution: < 25%

Exercise: Consider the molecule CCC1(C)OCC(NC(=O)c2nccc(OC)c2O)CO1 (stereo not shown) [Compound 314] and give its measured pest or weed control at 100 ppm.
Solution: 25 to 74%

Exercise: Consider the molecule O=C(NCc1ccccc1Cl)c1ncccc1O [Compound 218] and give its measured pest or weed control at 100 ppm.
Solution: < 25%

Exercise: Consider the molecule COc1cc(NC(=O)c2ncccc2O)cc(OC)c1 [Compound 216] and give its measured pest or weed control at 100 ppm.
Solution: < 25%

Exercise: Consider the molecule CCCCCCCCCNC(=O)c1ncccc1O [Compound 201] and give its measured pest or weed control at 100 ppm.
Solution: < 25%

Exercise: Consider the molecule COc1ccnc(C(=O)NC2CC(C)(C)C(OC(=O)CC(C)C)C(C)(C)C2)c1O (stereo not shown) [Compound 267] and give its measured pest or weed control at 100 ppm.
Solution: 25 to 74%

Exercise: Consider the molecule COc1ccnc(C(=O)NC2CC(C)(C)C(=O)C(C)(C)C2)c1O [Compound 266] and give its measured pest or weed control at 100 ppm.
Solution: 25 to 74%

Exercise: Consider the molecule O=C(Nc1ccc(Oc2ccc(C(F)(F)F)cc2)cc1)c1ncccc1O [Compound 217] and give its measured pest or weed control at 100 ppm.
Solution: < 25%

Exercise: Consider the molecule COc1ccnc(C(=O)NCC2C(C=C(C)C)C2(C)C)c1O (stereo not shown) [Compound 241] and give its measured pest or weed control at 100 ppm.
Solution: 25 to 74%

Exercise: Consider the molecule COc1ccccc1CNC(=O)c1ncccc1O [Compound 224] and give its measured pest or weed control at 100 ppm.
Solution: < 25%
